Target: human CB2 receptor (Homo sapiens)
Sequence (P34972 whole entry): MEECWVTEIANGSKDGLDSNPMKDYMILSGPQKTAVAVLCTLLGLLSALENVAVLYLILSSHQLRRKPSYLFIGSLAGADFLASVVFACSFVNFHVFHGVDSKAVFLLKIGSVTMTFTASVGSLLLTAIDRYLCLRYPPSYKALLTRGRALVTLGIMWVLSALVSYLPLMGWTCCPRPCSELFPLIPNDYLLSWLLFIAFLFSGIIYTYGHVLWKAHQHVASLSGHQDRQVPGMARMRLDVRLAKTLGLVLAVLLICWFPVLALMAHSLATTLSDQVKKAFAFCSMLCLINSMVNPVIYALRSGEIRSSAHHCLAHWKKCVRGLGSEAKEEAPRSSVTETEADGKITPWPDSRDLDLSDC
Experiment: cell-based
Assay type: cell-based
Details: change in intracellular cAMP, CHO-K1 hCB2 cells; class AR; read-out: EC50 values for human CB2 receptor
pEC50: −log10 of the molar value.
READOUT: pEC50

Take a look at these entries with their results.
{"STRUCTURE_SMILES_STRING": "Cc1cccc(CS(=O)(=O)N2CCOc3ncc(C(=O)NC(C)(C)C)cc32)c1", "pEC50": "< 4.52"}
{"STRUCTURE_SMILES_STRING": "Cn1cnc(S(=O)(=O)N2CCOc3ncc(C(=O)NC(C)(C)C)cc32)c1", "pEC50": "< 4.52"}
{"STRUCTURE_SMILES_STRING": "O=C(N[C@H]1CC[C@H](O)CC1)c1cnc2c(c1)N(S(=O)(=O)c1ccc(Cl)c(Cl)c1)CCO2", "pEC50": "< 4.52"}
{"STRUCTURE_SMILES_STRING": "CCN(CCN(C)C)C(=O)c1cnc2c(c1)N(S(=O)(=O)c1ccc(C(F)(F)F)cc1)CCO2", "pEC50": "< 4.52"}
{"STRUCTURE_SMILES_STRING": "CS(=O)(=O)N1CCN(C(=O)c2cnc3c(c2)N(S(=O)(=O)c2ccc(Cl)c(Cl)c2)CCO3)CC1", "pEC50": "< 4.52"}

Lookup: # input compound: COCCCNC(=O)c1cnc2c(c1)N(S(=O)(=O)c1cccnc1)CCO2 ; wanted: its pEC50
Found: < 4.52

Lookup: # input compound: CCN(CC)C(=O)c1cnc2c(c1)N(S(=O)(=O)c1cccnc1)CCO2 ; wanted: its pEC50
Found: < 4.52

Lookup: # input compound: CC(C)(C)NC(=O)c1cnc2c(c1)N(S(=O)(=O)c1ccccc1OC(F)(F)F)CCO2 ; wanted: its pEC50
Found: < 4.52
